Test system: K562
Test: NCI tumour cell line growth inhibition, 48 h
Activity calls are given as the source filed them. No stated cut-off is given here; in the data, active = GI50 up to about 1.1 µM and inactive = higher.
List of GI50 values.

Determine its reported GI50: COc1cc(/C=C2\CC3C4CC[C@H]5C[C@@H](O)CC[C@]5(C)C4CC[C@]3(C)\C2=N\O)cc(OC)c1OC (stereo partly drawn) 4.66 µM (inactive)

Determine its reported GI50: O=C(c1cccc2ccccc12)C1(Br)S(=O)(=O)OCCOS1(=O)=O > 10 µM (inactive)

Determine its reported GI50: CC(C)OC(=O)NNc1cc(Cl)ccc1Cl 19.2 µM (inactive)

----------
Tested on: M14
Assay: NCI tumour cell line growth inhibition, 48 h
Active and inactive are the calls of the source. No stated cut-off is given here; in the data, active = GI50 up to about 1.1 µM and inactive = higher.
property name: GI50

Worked examples follow.
Determine its reported GI50: COc1cc2c(c(O)c1OC)C(O)C1CCC(=O)N1C2c1cccc2ccccc12 (configuration not stated) > 100 µM (inactive)

Determine its reported GI50: N=c1oc2c(O)c(O)ccc2cc1C(N)=O 43 µM (inactive)

Determine its reported GI50: CCOC(=O)NC(Nc1ccc([N+](=O)[O-])cc1)(C(F)(F)F)C(F)(F)F 60.4 µM (inactive)

Determine its reported GI50: Cc1nc2c(Cl)cc(Cl)cc2c2c1CCO2 > 100 µM (inactive)

Determine its reported GI50: CNS(=O)(=O)NN(C)S(=O)(=O)c1ccc(Br)cc1 > 100 µM (inactive)

Determine its reported GI50: O=S1(=O)CS(=O)(=O)OCCCCCO1 > 100 µM (inactive)

Determine its reported GI50: O=C(c1cc(Cl)ccc1Cl)N1CCN(c2ccc(Cl)c(Cl)c2)CC1 > 10 µM (inactive)

Determine its reported GI50: OC1CC(O)O[C@H](c2ccccc2)C1 (some centres not stated) > 100 µM (inactive)

Further cases:
Determine its reported GI50: Cc1ccc(C)c(NC(=O)/C(=N\N)C(c2cnc3ccc([N+](=O)[O-])cc3n2)[N+](=O)[O-])c1 (configuration not stated) > 100 µM (inactive)

Determine its reported GI50: Nc1nc(Cl)cc(NCC2(CO)CC(CCCCc3ccccc3)C2)n1 (configuration not stated) 67.6 µM (inactive)

Determine its reported GI50: CCOC(=O)[C@H]1Nc2ccc(Cl)cc2[C@H]2CCC[C@@H]12 > 100 µM (inactive)

Determine its reported GI50: CCOC(=O)C(CO)c1nc2c([nH]c1=O)c(=O)n(C)c(=O)n2C (configuration not stated) > 100 µM (inactive)
